Hello, the source for this data is patent US10590056B2, in case you need it.

# subject-of-test: human ERRβ (Homo sapiens, UniProt O95718)
# Construct: expressed in transfected cells; host or cells: CV-1 cells, cytomegalovirus-driven expression vectors
# Sequence (O95718 208-432 limits assumed): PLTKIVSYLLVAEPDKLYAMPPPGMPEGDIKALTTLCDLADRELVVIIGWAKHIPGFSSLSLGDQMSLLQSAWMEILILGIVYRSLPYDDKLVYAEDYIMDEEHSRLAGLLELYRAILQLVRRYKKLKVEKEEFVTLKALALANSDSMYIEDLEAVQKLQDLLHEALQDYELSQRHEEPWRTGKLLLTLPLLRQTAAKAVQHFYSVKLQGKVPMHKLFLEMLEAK
# test-method-notes: GAL4 DBD-ERRβ LBD cotransfection luciferase reporter assay in CV-1 cells
# Format: cell-based
# experimental-conditions: CV-1 cells co-transfected with reporter and expression vectors; human ERRβ LBD
pIC50: −log10 of the molar value.
The following compounds are shown together with reported pIC50 values.

- compound: "COC(=O)CC/C(=C(\\c1ccc(O)cc1)c1ccc(OCCN(C)C)cc1)c1ccccc1 [Compound 3g]"
  pIC50: 6.46
- compound: "COC(=O)C(C)CC(=C(c1ccc(O)cc1)c1ccc(O)cc1)c1ccccc1 (stereo not drawn) [Compound 1h]"
  pIC50: 6.52
- compound: "CC(CO)C/C(=C(\\c1ccc(O)cc1)c1ccc(OCCN(C)C)cc1)c1ccccc1 (stereo not drawn) [Compound 3n]"
  pIC50: 5.65
- compound: "CC/C(=C(\\c1ccc(O)cc1)c1ccc(OCCN(C)C)cc1)c1ccccc1 [Compound Z-4-OHT, reference compound]"
  pIC50: 6.19
- compound: "COC(=O)CCC(=C(c1ccc(O)cc1)c1ccc(O)cc1)c1ccccc1 [Compound 1g]"
  pIC50: 6.22
- compound: "CC(C)/C(=C(\\c1ccc(O)cc1)c1ccc(OCCN(C)C)cc1)c1ccccc1 [Compound 3a]"
  pIC50: 6.68

====

# subject-of-test: mouse ERRγ (Mus musculus)
# Sequence (P62509 233-457 limits assumed): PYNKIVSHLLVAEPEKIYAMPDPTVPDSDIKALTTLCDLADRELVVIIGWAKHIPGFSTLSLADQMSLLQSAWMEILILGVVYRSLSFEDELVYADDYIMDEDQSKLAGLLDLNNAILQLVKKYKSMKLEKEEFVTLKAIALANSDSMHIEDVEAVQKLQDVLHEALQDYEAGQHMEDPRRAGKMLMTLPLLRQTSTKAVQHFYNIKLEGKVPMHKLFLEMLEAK
# test-method-notes: GAL4 DBD-ERRγ LBD cotransfection luciferase reporter assay in CV-1 cells
# experimental-conditions: CV-1 cells co-transfected with reporter and expression vectors; mouse ERRγ LBD
reported-metric: IC50 (nM)

- compound: "COC(=O)CCC(=C(c1ccc(O)cc1)c1ccc(O)cc1)c1ccccc1"
  subject-of-test: "mouse ERRγ (Mus musculus)"
  reported-metric: "IC50"
  value: 6500
- compound: "CC/C(=C(\\c1ccc(O)cc1)c1ccc(OCCN(C)C)cc1)c1ccccc1 [Compound Z-4-OHT, reference compound]"
  subject-of-test: "mouse ERRγ (Mus musculus)"
  reported-metric: "IC50"
  value: 600
- compound: "COC(=O)CC/C(=C(\\c1ccc(O)cc1)c1ccc(OCCN(C)C)cc1)c1ccccc1"
  subject-of-test: "mouse ERRγ (Mus musculus)"
  reported-metric: "IC50"
  value: 3500
- compound: "COC(=O)C(C)C/C(=C(\\c1ccc(O)cc1)c1ccc(OCCN(C)C)cc1)c1ccccc1 (stereo not shown)"
  subject-of-test: "mouse ERRγ (Mus musculus)"
  reported-metric: "IC50"
  value: 2780
- compound: "COC(=O)C(C)CC(=C(c1ccc(O)cc1)c1ccc(O)cc1)c1ccccc1 (stereo not shown)"
  subject-of-test: "mouse ERRγ (Mus musculus)"
  reported-metric: "IC50"
  value: 5500
- compound: "CC(C)/C(=C(\\c1ccc(O)cc1)c1ccc(OCCN(C)C)cc1)c1ccccc1"
  subject-of-test: "mouse ERRγ (Mus musculus)"
  reported-metric: "IC50"
  value: 290
- compound: "CC(CO)C/C(=C(\\c1ccc(O)cc1)c1ccc(OCCN(C)C)cc1)c1ccccc1 (stereo not shown)"
  subject-of-test: "mouse ERRγ (Mus musculus)"
  reported-metric: "IC50"
  value: 2500
